- Target: ErbB3 on rat Schwann cells (rat) (UniProt Q62799)
- Sequence (Q62799 20-1339): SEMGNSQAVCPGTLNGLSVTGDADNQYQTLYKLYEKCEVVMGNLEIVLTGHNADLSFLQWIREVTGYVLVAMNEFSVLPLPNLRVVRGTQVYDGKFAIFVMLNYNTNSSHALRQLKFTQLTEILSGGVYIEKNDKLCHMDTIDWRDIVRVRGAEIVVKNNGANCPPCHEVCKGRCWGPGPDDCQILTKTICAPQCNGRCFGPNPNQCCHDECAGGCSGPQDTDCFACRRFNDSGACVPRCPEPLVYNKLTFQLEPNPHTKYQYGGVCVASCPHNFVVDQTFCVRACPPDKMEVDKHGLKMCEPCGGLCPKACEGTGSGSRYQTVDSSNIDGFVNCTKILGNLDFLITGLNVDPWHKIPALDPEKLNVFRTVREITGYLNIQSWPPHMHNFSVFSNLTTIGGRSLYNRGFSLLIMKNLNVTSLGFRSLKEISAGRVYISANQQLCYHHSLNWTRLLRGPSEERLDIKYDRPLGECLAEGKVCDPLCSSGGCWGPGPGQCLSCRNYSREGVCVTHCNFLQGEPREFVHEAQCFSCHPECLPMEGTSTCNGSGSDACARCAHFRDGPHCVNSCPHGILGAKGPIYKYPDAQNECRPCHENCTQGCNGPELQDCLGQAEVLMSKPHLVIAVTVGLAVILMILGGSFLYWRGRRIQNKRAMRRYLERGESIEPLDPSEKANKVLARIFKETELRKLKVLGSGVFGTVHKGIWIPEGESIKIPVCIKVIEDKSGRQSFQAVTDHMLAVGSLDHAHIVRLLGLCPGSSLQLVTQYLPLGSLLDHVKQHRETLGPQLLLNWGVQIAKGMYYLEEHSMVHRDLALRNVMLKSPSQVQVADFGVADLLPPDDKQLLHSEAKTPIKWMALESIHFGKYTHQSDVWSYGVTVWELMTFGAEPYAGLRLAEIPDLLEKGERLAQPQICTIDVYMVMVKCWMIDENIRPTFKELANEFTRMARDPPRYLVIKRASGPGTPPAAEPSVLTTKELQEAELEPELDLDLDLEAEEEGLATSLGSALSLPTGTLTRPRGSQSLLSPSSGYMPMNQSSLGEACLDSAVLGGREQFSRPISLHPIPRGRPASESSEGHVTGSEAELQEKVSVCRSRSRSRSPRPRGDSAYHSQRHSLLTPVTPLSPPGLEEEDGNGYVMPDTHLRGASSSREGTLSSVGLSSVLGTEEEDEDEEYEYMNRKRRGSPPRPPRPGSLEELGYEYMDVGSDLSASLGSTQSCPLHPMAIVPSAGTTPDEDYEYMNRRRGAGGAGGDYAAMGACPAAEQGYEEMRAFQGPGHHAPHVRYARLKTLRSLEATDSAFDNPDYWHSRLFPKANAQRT
- Assay Details: cell-based or functional assay
Measurement Type: Schwann cells (SC) (ErbB3) Avg EC50

binder="huNRG1(S177-Q237)(3E6)::GG::huFcSEFL2 (Pb) (Fc fusion) SHLVKCAEKHKSFCVNGGECYVIEGSSIPSRFLCKCPNEFTGDRCQKDFMASFYKAEELYQGGDKTHTCPPCPAPELLGGPSVFLFPPKPKDTLMISRTPEVTCVVVDVSHEDPEVKFNWYVDGVEVHNAKTKPCEEQYGSTYRCVSVLTVLHQDWLNGKEYKCKVSNKALPAPIEKTISKAKGQPREPQVYTLPPSREEMTKNQVSLTCLVKGFYPSDIAVEWESNGQPENNYKTTPPVLDSDGSFFLYSKLTVDKSRWQQGNVFSCSVMHEALHNHYTQKSLSLSPGK" measurement_type="Schwann cells (SC) (ErbB3) Avg EC50" test_result="> 10 µM"
